Molecular target: NEK7 (Homo sapiens (Human), UniProt Q8TDX7+Q96SW2)
Sequence (Q8TDX7 whole entry): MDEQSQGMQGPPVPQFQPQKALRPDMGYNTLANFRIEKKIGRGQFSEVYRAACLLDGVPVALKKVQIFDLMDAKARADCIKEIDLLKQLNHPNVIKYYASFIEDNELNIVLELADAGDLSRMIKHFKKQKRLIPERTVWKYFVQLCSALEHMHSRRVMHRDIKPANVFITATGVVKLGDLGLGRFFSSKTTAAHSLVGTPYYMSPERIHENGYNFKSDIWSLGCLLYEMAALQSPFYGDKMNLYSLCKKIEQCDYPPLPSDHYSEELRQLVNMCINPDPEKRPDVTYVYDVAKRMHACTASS
Sequence (Q96SW2 whole entry): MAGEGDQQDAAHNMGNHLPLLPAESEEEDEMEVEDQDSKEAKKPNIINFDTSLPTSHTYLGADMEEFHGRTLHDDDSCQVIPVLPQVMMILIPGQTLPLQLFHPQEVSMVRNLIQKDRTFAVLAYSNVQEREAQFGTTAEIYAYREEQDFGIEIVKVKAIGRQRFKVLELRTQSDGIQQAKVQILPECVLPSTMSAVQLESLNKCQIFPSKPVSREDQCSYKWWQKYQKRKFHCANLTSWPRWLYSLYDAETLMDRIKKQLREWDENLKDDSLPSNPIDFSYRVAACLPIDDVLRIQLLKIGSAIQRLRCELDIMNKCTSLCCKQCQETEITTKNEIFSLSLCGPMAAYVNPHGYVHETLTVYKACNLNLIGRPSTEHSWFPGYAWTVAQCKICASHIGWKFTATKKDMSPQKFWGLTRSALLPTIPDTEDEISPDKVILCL
Sequence (Q16531 2-1140 partner): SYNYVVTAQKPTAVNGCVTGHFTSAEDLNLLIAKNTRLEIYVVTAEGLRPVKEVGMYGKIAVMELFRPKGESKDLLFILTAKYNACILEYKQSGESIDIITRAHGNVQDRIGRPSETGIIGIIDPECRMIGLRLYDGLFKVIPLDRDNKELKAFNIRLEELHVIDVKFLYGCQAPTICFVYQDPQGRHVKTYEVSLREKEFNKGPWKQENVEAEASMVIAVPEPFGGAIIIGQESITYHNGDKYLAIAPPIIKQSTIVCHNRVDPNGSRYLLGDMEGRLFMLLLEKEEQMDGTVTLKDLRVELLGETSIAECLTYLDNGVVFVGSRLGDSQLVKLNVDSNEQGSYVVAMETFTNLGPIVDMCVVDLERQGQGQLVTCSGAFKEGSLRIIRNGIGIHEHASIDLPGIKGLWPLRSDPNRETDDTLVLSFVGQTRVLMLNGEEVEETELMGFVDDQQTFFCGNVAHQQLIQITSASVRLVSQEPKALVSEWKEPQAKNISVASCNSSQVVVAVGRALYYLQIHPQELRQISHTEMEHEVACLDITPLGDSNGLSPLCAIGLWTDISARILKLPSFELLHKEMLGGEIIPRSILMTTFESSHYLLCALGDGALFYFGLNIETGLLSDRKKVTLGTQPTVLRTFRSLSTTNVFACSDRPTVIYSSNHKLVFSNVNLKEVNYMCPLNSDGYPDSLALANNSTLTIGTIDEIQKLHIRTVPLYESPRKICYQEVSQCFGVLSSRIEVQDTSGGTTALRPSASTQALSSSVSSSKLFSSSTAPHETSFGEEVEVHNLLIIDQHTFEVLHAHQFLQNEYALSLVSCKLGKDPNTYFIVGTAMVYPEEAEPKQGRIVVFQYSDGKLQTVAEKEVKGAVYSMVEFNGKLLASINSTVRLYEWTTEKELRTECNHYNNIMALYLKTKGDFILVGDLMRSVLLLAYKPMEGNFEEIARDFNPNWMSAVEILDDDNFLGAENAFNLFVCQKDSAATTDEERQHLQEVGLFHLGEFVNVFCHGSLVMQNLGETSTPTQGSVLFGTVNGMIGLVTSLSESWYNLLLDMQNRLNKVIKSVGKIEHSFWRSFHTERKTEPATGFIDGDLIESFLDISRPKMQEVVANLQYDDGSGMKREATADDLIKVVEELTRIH
Assay: NEK7 NanoBiT degradation assay in Cal51 NEK7 NanoBiT cell line
Type: cell-based
Conditions: CAL-51; NEK7 degradation, Cal51 NEK7 NanoBiT cells, 24 hours; read-out: NanoBiT Dmax
Readout Type: Dmax

For orientation, consider the following solved cases.
Compound	Dmax
CC(C)(C(=O)NCc1cc(Cl)c(C2CCC(=O)NC2=O)c(Cl)c1)c1cnccn1 (centres unmarked)	50 to 75%
O=C1CCC(c2c(Cl)cc(CNC(=O)C3(c4ncccn4)CCC3)cc2Cl)C(=O)N1 (centres unmarked)	50 to 75%
Cn1c(=O)[nH]c2cc(C(C)(C)C(=O)NCc3cc(Cl)c(C4CCC(=O)NC4=O)c(Cl)c3)ccc21 (centres unmarked)	> 75%
CC(F)(F)c1cnc(C(C)(C)C(=O)NCc2cc(Cl)c(C3CCC(=O)NC3=O)c(Cl)c2)nc1 (centres unmarked)	> 75%
COc1conc1C(C)(C)C(=O)NCc1cc(Cl)c(C2CCC(=O)NC2=O)c(Cl)c1 (centres unmarked)	> 75%
CC(C)(C(=O)NCc1cc(F)c(C2CCC(=O)NC2=O)c(Cl)c1)c1ccccc1 (centres unmarked)	> 75%
CC(C)(C(=O)NCc1ccc(C2CCC(=O)NC2=O)c(Cl)c1)c1ccc(Cl)cc1 (centres unmarked)	> 75%

Now for another entry.
GET /value?item= CC(C)(C(=O)NCc1cc(Cl)c(C2CCC(=O)NC2=O)c(Cl)c1)c1cnc(Cl)cn1 (centres unmarked) &field=Dmax returns > 75%

====

# Dmax annotations
Target: NEK7 (Homo sapiens (Human), UniProt Q8TDX7+Q96SW2)
Experiment: NEK7 NanoBiT degradation assay in Cal51 NEK7 NanoBiT cell line
Format: cell-based
Conditions: CAL-51; NEK7 degradation, Cal51 NEK7 NanoBiT cells, 24 hours; read-out: NanoBiT Dmax

For orientation, consider the following solved cases.
Compound	Dmax
CC(C)(C(=O)NCc1cc(Cl)c(C2CCC(=O)NC2=O)c(Cl)c1)c1ccc2ncncc2c1 (stereo not drawn)	> 75%
CC(C)(C(=O)NCc1cc(Cl)c(C2CCC(=O)NC2=O)c(Cl)c1)c1ncc(C(=O)O)cn1 (stereo not drawn)	≤ 50%
O=C1CCC(c2c(Cl)cc(CNC(=O)C3(c4ccncc4)CCCC3)cc2Cl)C(=O)N1 (stereo not drawn)	> 75%
CC(C)(C(=O)NCc1cc(Cl)c(C2CCC(=O)NC2=O)c(Cl)c1)c1ncc(F)cn1 (stereo not drawn)	> 75%
CC(C)(C(=O)NCc1cc(Cl)c(C2CCC(=O)NC2=O)c(Cl)c1)c1nccc(C2CC2)n1 (stereo not drawn)	50 to 75%
CC(C)(C(=O)NCc1cc(Cl)c(C2CCC(=O)NC2=O)c(Cl)c1)c1cc(C2CC2)ncn1 (stereo not drawn)	50 to 75%
CC(C)(C(=O)NCc1cc(Cl)c(C2CCC(=O)NC2=O)c(Cl)c1)c1ccc(OC(F)F)nn1 (stereo not drawn)	> 75%
CC(C)(C(=O)NCc1cc(Cl)c(C2CCC(=O)NC2=O)c(Cl)c1)c1nccc(CO)n1 (stereo not drawn)	50 to 75%

GET /value?item= O=C1CCC(c2c(Cl)cc(CNC(=O)C3(c4ccccc4)CCOC3)cc2Cl)C(=O)N1 (stereo not drawn) &field=Dmax returns > 75%

GET /value?item= COc1ccc(C(C)(C)C(=O)NCc2cc(F)c(C3CCC(=O)NC3=O)c(Cl)c2)nc1 (stereo not drawn) &field=Dmax returns > 75%

GET /value?item= COc1cc(C(C)(C)C(=O)NCc2cc(Cl)c(C3CCC(=O)NC3=O)c(Cl)c2)ccn1 (stereo not drawn) &field=Dmax returns > 75%

GET /value?item= CC(F)(F)c1cnc(C(C)(C)C(=O)NCc2cc(Cl)c(C3CCC(=O)NC3=O)c(Cl)c2)cn1 (stereo not drawn) &field=Dmax returns > 75%

GET /value?item= CC(C)(C(=O)NCc1cc(Cl)c([C@]2(F)CCC(=O)NC2=O)c(Cl)c1)c1ccccc1 (single isomer, unassigned) &field=Dmax returns 50 to 75%

GET /value?item= CC(C)(C(=O)NCc1ccc(C2CCC(=O)NC2=O)c(Cl)c1)c1ccncc1 (stereo not drawn) &field=Dmax returns 50 to 75%

GET /value?item= Cc1cc(C(C)(C)C(=O)NCc2cc(Cl)c(C3CCC(=O)NC3=O)c(Cl)c2)nn1C (stereo not drawn) &field=Dmax returns > 75%

====

Molecular target: NEK7 (Homo sapiens (Human), UniProt Q8TDX7+Q96SW2)
Assay: NEK7 NanoBiT degradation assay in Cal51 NEK7 NanoBiT cell line
Assay type: cell-based
Settings: CAL-51; Cal51 NEK7 NanoBiT cells, 24 hours; read-out: NEK7 NanoBiT Dmax
Procedure: Cal51 NEK7 NanoBiT cell line was generated via CRISPR Knock-In of the HiBiT tag in NEK7 gene and stable infection with a lentivirus carrying LgBiT protein. The cell line was generated in house. […] Cells were incubated at 37° C., 5% CO2 for 24 hours and then signal was read on a Pherastar FSX using “LUM plus” optic module with 4095 gain and measurement interval time 0.2 seconds. […]
Readout Type: Dmax (%)

Compound	Dmax (%)
CC(C)(C(=O)NCc1cc(Cl)c(C2CCC(=O)NC2=O)c(Cl)c1)c1ncc(F)cn1 (stereo not shown)	90
CC(C)(C(=O)NCc1cc(Cl)c(C2CCC(=O)NC2=O)c(Cl)c1)c1ccsc1 (stereo not shown)	94

a = Cc1nnc(C(C)(C)C(=O)NCc2cc(Cl)c([C@H]3CCC(=O)NC3=O)c(Cl)c2)o1 (single isomer, unassigned)
b = CC(C)(C(=O)NCc1cc(Cl)c(C2CCC(=O)NC2=O)c(Cl)c1)c1cc(C2CC2)on1 (stereo not shown)
Query :: Could you tell me which of a and b has the lower Dmax reading? In your reply, give the label of the chosen option.
Result :: a
(a: 49%, b: 83%)

====

# Dmax annotations
Target: NEK7 (Homo sapiens (Human), UniProt Q8TDX7+Q96SW2)
Assay: NEK7 NanoBiT degradation assay in Cal51 NEK7 NanoBiT cell line
Type: cell-based
Details: CAL-51; NEK7 degradation, Cal51 NEK7 NanoBiT cells, 24 hours; read-out: NanoBiT Dmax

Compound	Readout Type	Reading
CC(C)(C(=O)NCc1cc(Cl)c(C2CCC(=O)NC2=O)c(Cl)c1)c1ccnc(C#N)c1 (stereo not shown)	Dmax	50 to 75%
CN(C)c1ccc(C(C)(C)C(=O)NCc2cc(Cl)c(C3CCC(=O)NC3=O)c(Cl)c2)cc1 (stereo not shown)	Dmax	> 75%
CC1(c2cnc(C(C)(C)C(=O)NCc3cc(Cl)c(C4CCC(=O)NC4=O)c(Cl)c3)nc2)CC1 (stereo not shown)	Dmax	> 75%

Now for another entry.
GET /value?item= COc1cnc(C(C)(C)C(=O)NCc2cc(F)c(C3CCC(=O)NC3=O)c(Cl)c2)nc1 (stereo not shown) &field=Dmax returns > 75%

====

Biological target: CRBN-DDB1 (Homo sapiens (Human))
Sequence (Q96SW2 whole entry): as the sequence (Q96SW2 whole entry) above
Sequence (Q16531 whole entry partner): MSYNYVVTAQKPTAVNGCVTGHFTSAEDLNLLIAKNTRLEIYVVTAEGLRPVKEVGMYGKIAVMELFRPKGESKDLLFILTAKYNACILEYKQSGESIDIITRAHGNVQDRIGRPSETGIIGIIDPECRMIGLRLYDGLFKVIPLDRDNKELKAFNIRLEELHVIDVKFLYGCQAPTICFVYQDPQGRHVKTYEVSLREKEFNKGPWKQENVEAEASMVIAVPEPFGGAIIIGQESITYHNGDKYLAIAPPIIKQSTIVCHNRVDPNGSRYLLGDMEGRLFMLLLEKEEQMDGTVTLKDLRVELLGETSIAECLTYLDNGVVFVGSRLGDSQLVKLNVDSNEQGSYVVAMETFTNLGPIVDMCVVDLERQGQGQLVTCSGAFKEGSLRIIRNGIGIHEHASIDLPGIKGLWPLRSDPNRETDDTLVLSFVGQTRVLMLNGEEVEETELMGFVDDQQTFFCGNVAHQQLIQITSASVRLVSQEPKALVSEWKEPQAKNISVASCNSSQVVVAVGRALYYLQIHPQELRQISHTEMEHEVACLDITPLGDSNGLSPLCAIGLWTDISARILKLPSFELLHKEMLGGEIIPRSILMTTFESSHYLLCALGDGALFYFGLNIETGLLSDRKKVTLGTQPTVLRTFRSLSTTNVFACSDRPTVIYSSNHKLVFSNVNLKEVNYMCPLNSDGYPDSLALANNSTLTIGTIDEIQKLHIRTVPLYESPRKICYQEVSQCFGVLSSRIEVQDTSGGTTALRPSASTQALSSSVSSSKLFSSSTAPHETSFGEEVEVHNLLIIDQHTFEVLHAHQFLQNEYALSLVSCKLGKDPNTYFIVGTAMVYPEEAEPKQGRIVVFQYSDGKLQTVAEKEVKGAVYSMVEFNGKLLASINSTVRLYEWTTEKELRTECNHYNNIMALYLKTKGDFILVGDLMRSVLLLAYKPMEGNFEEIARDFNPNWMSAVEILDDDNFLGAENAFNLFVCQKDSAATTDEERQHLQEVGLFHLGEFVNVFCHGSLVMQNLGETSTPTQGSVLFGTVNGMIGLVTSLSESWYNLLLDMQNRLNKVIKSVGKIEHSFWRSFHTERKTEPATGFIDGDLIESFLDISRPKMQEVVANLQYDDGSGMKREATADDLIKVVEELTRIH
Assay: Compound binding to CRBN by HTRF assay
pEC50: −log10 of the molar value.
Readout Type: pEC50

For orientation, consider the following solved cases.
Molecule	Reading
CC(C)(C(=O)NCc1cc(Cl)c(C2CCC(=O)NC2=O)c(Cl)c1)c1ncc(CC(F)F)cn1 (centres unmarked)	7.05
CC(C)(C(=O)NCc1cc(Cl)c(C2CCC(=O)NC2=O)c(Cl)c1)c1ccnc2ccccc12 (centres unmarked)	6.85
CC(C)(C(=O)NCc1cc(Cl)c(C2CCC(=O)NC2=O)c(Cl)c1)c1ccn2cnnc2c1 (centres unmarked)	6.64
CC(C)(C(=O)NCc1cc(Cl)c(C2CCC(=O)NC2=O)c(Cl)c1)c1ccc2c(c1)CNS2(=O)=O (centres unmarked)	7.00
CC(C)(C(=O)NCc1cc(Cl)c(C2CCC(=O)NC2=O)c(Cl)c1)N1Cc2ccccc2C1 (centres unmarked)	6.74

a = CC(C)(C(=O)NCc1cc(Cl)c(C2CCC(=O)NC2=O)c(Cl)c1)c1ccc(C(F)(F)F)nn1 (centres unmarked)
b = CC(C)(C(=O)NCc1cc(Cl)c(C2CCC(=O)NC2=O)c(Cl)c1)c1ccc(S(N)(=O)=O)cc1 (centres unmarked)
c = CC(C)(C(=O)NCc1ccc(C2CCC(=O)NC2=O)c(Cl)c1)c1ccncc1 (centres unmarked)
Query :: Arrange these 3 molecules in increasing order of pEC50. Lab note: final answer is the ordered label list.
Result :: c, a, b

====

Target: NEK7 (Homo sapiens (Human), UniProt Q8TDX7+Q96SW2)
Assay: NEK7 NanoBiT degradation assay in Cal51 NEK7 NanoBiT cell line
Type: cell-based
Conditions: CAL-51; Cal51 NEK7 NanoBiT cells, 24 hours; read-out: NEK7 NanoBiT Dmax
Readout Type: Dmax (%)

Compound	Dmax, %
CC(C)(C(=O)NCc1cc(Cl)c(C2CCC(=O)NC2=O)c(Cl)c1)c1cnc(F)nc1 (stereo not shown) [Compound 5]	63
CCc1cnc(C(C)(C)C(=O)NCc2cc(Cl)c(C3CCC(=O)NC3=O)c(Cl)c2)cn1 (stereo not shown) [Compound 247]	83
CC(C)(C(=O)NCc1cc(Cl)c([C@@H]2CCC(=O)NC2=O)c(Cl)c1)c1ncccn1 (single isomer, unassigned) [Compound 179]	59
CC(C)(C(=O)NCc1ccc(C2CCC(=O)NC2=O)c(Cl)c1)c1nc2ccccc2o1 (stereo not shown) [Compound 246]	82
CC(C)(C(=O)NCc1cc(Cl)c(C2CCC(=O)NC2=O)c(Cl)c1)c1ccc2ocnc2c1 (stereo not shown) [Compound 17]	98
CC(C)(C(=O)NCc1cc(Cl)c(C2CCC(=O)NC2=O)c(Cl)c1)c1cc(F)ccn1 (stereo not shown) [Compound 149]	85
O=C1CCC(c2c(Cl)cc(CNC(=O)C3(c4ncccn4)CCC3)cc2Cl)C(=O)N1 (stereo not shown) [Compound 169]	75

src = patent US20250243180A1
